Cmax reference
# Assay Summary: in vivo
# Measurement Conditions: male, Hsd:ICR (CD-1), mouse, plasma, iv, 3 mg/kg
Use ng/mL as the unit, but write only the number.

{"Compound": "COC(=O)c1ccc(OC(=O)N2CCC(Nc3nc(N[C@H]4CC[C@H](N)CC4)nc4c3ncn4C3CCCC3)CC2)cc1.Cl.Cl [compound 83]", "Cmax / ng/mL": 1520}
{"Compound": "CCOC(=O)c1ccc(NC(=O)N2CCC(Nc3nc(N[C@H]4CC[C@H](N)CC4)nc4c3ncn4C3CCCC3)CC2)cc1.Cl.Cl [compound 154]", "Cmax / ng/mL": 4850}
{"Compound": "Cl.Cl.N[C@H]1CC[C@H](Nc2nc(NC3CCN(S(=O)(=O)c4ccc(F)cc4)CC3)c3ncn(C4CCCC4)c3n2)CC1 [compound 106]", "Cmax / ng/mL": 765}

# input compound: COC(=O)c1ccccc1S(=O)(=O)N1CCC(Nc2nc(N[C@H]3CC[C@H](N)CC3)nc3c2ncn3C2CCCC2)CC1.Cl.Cl [compound 111] ; wanted: its Cmax 2450

# input compound: Cl.Cl.N[C@H]1CC[C@H](Nc2nc(NC3CCN(C(=O)Oc4ccc(F)cc4)CC3)c3ncn(C4CCCC4)c3n2)CC1 [compound 87] ; wanted: its Cmax 1170

# input compound: Cc1ccc(OC(=O)N2CCC(Nc3nc(N[C@H]4CC[C@H](N)CC4)nc4c3ncn4C3CCCC3)CC2)cc1.Cl.Cl [compound 82] ; wanted: its Cmax 1460

# input compound: Cl.Cl.N[C@H]1CC[C@H](Nc2nc(NC3CCN(C(=O)Oc4ccc([N+](=O)[O-])cc4)CC3)c3ncn(C4CCCC4)c3n2)CC1 [compound 89] ; wanted: its Cmax 642

# input compound: Cl.Cl.N[C@H]1CC[C@H](Nc2nc(NC3CCN(S(=O)(=O)c4cccc(C(F)(F)F)c4)CC3)c3ncn(C4CCCC4)c3n2)CC1 [compound 112] ; wanted: its Cmax 2810

# input compound: Cl.Cl.N[C@H]1CC[C@H](Nc2nc(NC3CCN(C(=O)Oc4ccc(Br)cc4)CC3)c3ncn(C4CCCC4)c3n2)CC1 [compound 81] ; wanted: its Cmax 1770

# input compound: Cl.Cl.N[C@H]1CC[C@H](Nc2nc(NC3CCN(C(=O)Oc4ccccc4)CC3)c3ncn(C4CCCC4)c3n2)CC1 [compound 85] ; wanted: its Cmax 843

# input compound: Cl.Cl.N[C@H]1CC[C@H](Nc2nc(NC3CCN(C(=O)c4cccc(C(F)(F)F)c4F)CC3)c3ncn(C4CCCC4)c3n2)CC1 [compound 12] ; wanted: its Cmax 4110

# input compound: Cl.Cl.N#Cc1ccc(S(=O)(=O)N2CCC(Nc3nc(N[C@H]4CC[C@H](N)CC4)nc4c3ncn4C3CCCC3)CC2)cc1 [compound 109] ; wanted: its Cmax 1690

---

IC50 reference
# Target Desc: cdk4/cyclin D1 (Homo sapiens, UniProt P11802)
# Sequence (P11802 whole entry): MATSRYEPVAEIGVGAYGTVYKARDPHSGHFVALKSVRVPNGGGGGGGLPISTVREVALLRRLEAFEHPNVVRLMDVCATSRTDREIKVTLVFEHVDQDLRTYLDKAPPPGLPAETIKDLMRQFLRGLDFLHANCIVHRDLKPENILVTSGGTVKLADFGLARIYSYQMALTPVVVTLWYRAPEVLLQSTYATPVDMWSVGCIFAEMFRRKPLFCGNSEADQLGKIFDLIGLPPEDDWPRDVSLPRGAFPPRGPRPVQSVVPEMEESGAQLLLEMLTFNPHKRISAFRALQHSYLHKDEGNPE
# Sequence (P24385 whole entry partner): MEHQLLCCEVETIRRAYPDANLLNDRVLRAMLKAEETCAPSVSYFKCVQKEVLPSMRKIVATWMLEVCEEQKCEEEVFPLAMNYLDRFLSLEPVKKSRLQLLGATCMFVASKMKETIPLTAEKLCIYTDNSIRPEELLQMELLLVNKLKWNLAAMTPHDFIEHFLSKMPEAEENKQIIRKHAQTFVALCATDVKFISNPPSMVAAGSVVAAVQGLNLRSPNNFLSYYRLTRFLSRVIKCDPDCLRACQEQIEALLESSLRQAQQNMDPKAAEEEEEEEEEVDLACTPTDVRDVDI
# Assay Summary: Cyclin-dependent kinase assay, cdk4/cyclin D1
# Format: biochemical
# Measurement Conditions: cyclin D1/cdk4; GST-pRb substrate, 10 µM ATP
Where a name gives a salt, the structure may show the parent alone.
Use nM as the unit, but write only the number.

Answered examples (8):
{"Molecule": "CC(C)S(=O)(=O)N1CCC(Nc2nc(N[C@H]3CC[C@H](N)CC3)nc3c2ncn3C2CCCC2)CC1 [compound 125, dihydrochloride]", "Unit Abbreviation": "nM", "IC50": 62}
{"Molecule": "CC(C)(C)NC(=O)N1CCC(Nc2nc(N[C@H]3CC[C@H](N)CC3)nc3c2ncn3C2CCCC2)CC1 [compound 192, dihydrochloride]", "Unit Abbreviation": "nM", "IC50": 400}
{"Molecule": "N[C@H]1CC[C@H](Nc2nc(NC3CCN(S(=O)(=O)c4ccc(C(=O)O)cc4)CC3)c3ncn(C4CCCC4)c3n2)CC1 [compound 126, dihydrochloride]", "Unit Abbreviation": "nM", "IC50": 55}
{"Molecule": "N[C@H]1CC[C@H](Nc2nc(NC3CCN(C(=O)NC45CC6CC(CC(C6)C4)C5)CC3)c3ncn(C4CCCC4)c3n2)CC1 (relative stereo) [compound 181, dihydrochloride]", "Unit Abbreviation": "nM", "IC50": 1300}
{"Molecule": "CC(C)C(=O)N1CCC(Nc2nc(N[C@H]3CC[C@H](N)CC3)nc3c2ncn3C2CCCC2)CC1 [compound 59, dihydrochloride]", "Unit Abbreviation": "nM", "IC50": 721}
{"Molecule": "N[C@H]1CC[C@H](Nc2nc(NC3CCN(C(=O)COc4ccccc4)CC3)c3ncn(C4CCCC4)c3n2)CC1 [compound 28, dihydrochloride]", "Unit Abbreviation": "nM", "IC50": 140}
{"Molecule": "Cc1ccc(C(=O)N2CCC(Nc3nc(N[C@H]4CC[C@H](N)CC4)nc4c3ncn4C3CCCC3)CC2)cc1", "Unit Abbreviation": "nM", "IC50": 606}
{"Molecule": "N[C@H]1CC[C@H](Nc2nc(NC3CCN(C(=O)Nc4ccc(OC(F)(F)F)cc4)CC3)c3ncn(C4CCCC4)c3n2)CC1 [compound 175, dihydrochloride]", "Unit Abbreviation": "nM", "IC50": 682}

# input molecule: Cl.Cl.N[C@H]1CC[C@H](Nc2nc(NC3CCN(C(=O)Oc4ccc(Cl)cc4)CC3)c3ncn(C4CCCC4)c3n2)CC1 [compound 88, dihydrochloride] ; wanted: its IC50 204

# input molecule: N[C@H]1CC[C@H](Nc2nc(NC3CCN(C(=O)c4cc(Cl)cc(Cl)c4)CC3)c3ncn(C4CCCC4)c3n2)CC1 ; wanted: its IC50 483

# input molecule: N[C@H]1CC[C@H](Nc2nc(NC3CCN(S(=O)(=O)c4cc(Cl)cc(Cl)c4O)CC3)c3ncn(C4CCCC4)c3n2)CC1 [compound 117, dihydrochloride] ; wanted: its IC50 558

---

# Tested on: Colo-205
# Assay Summary: In vitro proliferation assay (MTT), Colo-205
# Format: cell-based
# Measurement Conditions: Homo sapiens, COLO 205; MTT assay; value (SD, n) where given; read-out: Colo-205 Colon (IC50 µM)
Counter-ions that a name gives are not always drawn.
IC50 reference
Use µM as the unit, but write only the number.

{"Compound": "CC(C)c1ccc(NC(=O)N2CCC(Nc3nc(N[C@H]4CC[C@H](N)CC4)nc4c3ncn4C3CCCC3)CC2)cc1 [compound 190, dihydrochloride]", "Target Desc": "Colo-205", "Assay Endpoint": "IC50", "Quantitative Readout": 0.02}
{"Compound": "CCOc1ccccc1NC(=O)N1CCC(Nc2nc(N[C@H]3CC[C@H](N)CC3)nc3c2ncn3C2CCCC2)CC1 [compound 171, dihydrochloride]", "Target Desc": "Colo-205", "Assay Endpoint": "IC50", "Quantitative Readout": 0.14}
{"Compound": "CC(C)[C@@H]1CC[C@@H](C)C[C@H]1OC(=O)N1CCC(Nc2nc(N[C@H]3CC[C@H](N)CC3)nc3c2ncn3C2CCCC2)CC1 [compound 86, dihydrochloride]", "Target Desc": "Colo-205", "Assay Endpoint": "IC50", "Quantitative Readout": 0.29}

Now examine the next entry.
API: value(readout=IC50, system=Colo-205) for record N[C@H]1CC[C@H](Nc2nc(NC3CCN(C(=O)COc4ccccc4)CC3)c3ncn(C4CCCC4)c3n2)CC1 [compound 28, dihydrochloride] 0.09

---

# Assay Summary: in vivo
# Measurement Conditions: male, Hsd:ICR (CD-1), mouse, plasma, iv, 18 mg/kg
Assay Endpoint: concentration at 0.083 h
Please state the value followed by its unit.

{"Molecule": "Cl.Cl.N[C@H]1CC[C@H](Nc2nc(NC3CCN(C(=O)Oc4ccccc4)CC3)c3ncn(C4CCCC4)c3n2)CC1 [compound 85, dihydrochloride]", "Result": "843 ng/mL"}
{"Molecule": "COc1ccc(OC(=O)N2CCC(Nc3nc(N[C@H]4CC[C@H](N)CC4)nc4c3ncn4C3CCCC3)CC2)cc1.Cl.Cl [compound 84, dihydrochloride]", "Result": "1510 ng/mL"}
{"Molecule": "COC(=O)c1ccc(OC(=O)N2CCC(Nc3nc(N[C@H]4CC[C@H](N)CC4)nc4c3ncn4C3CCCC3)CC2)cc1.Cl.Cl [compound 83, dihydrochloride]", "Result": "1520 ng/mL"}
{"Molecule": "Cl.Cl.N[C@H]1CC[C@H](Nc2nc(NC3CCN(C(=O)Oc4ccc(Br)cc4)CC3)c3ncn(C4CCCC4)c3n2)CC1 [compound 81, dihydrochloride]", "Result": "1770 ng/mL"}
{"Molecule": "Cl.Cl.N[C@H]1CC[C@H](Nc2nc(NC3CCN(C(=O)c4cccc(C(F)(F)F)c4F)CC3)c3ncn(C4CCCC4)c3n2)CC1 [compound 12, dihydrochloride]", "Result": "4110 ng/mL"}

# input molecule: CCOC(=O)c1ccc(NC(=O)N2CCC(Nc3nc(N[C@H]4CC[C@H](N)CC4)nc4c3ncn4C3CCCC3)CC2)cc1.Cl.Cl [compound 154, dihydrochloride] ; wanted: its concentration at 0.083 h 4850 ng/mL

# input molecule: Cl.Cl.N#Cc1ccc(S(=O)(=O)N2CCC(Nc3nc(N[C@H]4CC[C@H](N)CC4)nc4c3ncn4C3CCCC3)CC2)cc1 [compound 109, dihydrochloride] ; wanted: its concentration at 0.083 h 1690 ng/mL

# input molecule: COC(=O)c1ccccc1S(=O)(=O)N1CCC(Nc2nc(N[C@H]3CC[C@H](N)CC3)nc3c2ncn3C2CCCC2)CC1.Cl.Cl [compound 111, dihydrochloride] ; wanted: its concentration at 0.083 h 2450 ng/mL
